Reference source for all entries: patent US12195482B1

target: recombinant human MER (Homo sapiens); construct: purchased Invitrogen; test: Biochemical potency, HTRF KinEASE-TK kinase assay; settings: 1 nM MER, 700 μM ATP
Sequence (Q12866 21-999): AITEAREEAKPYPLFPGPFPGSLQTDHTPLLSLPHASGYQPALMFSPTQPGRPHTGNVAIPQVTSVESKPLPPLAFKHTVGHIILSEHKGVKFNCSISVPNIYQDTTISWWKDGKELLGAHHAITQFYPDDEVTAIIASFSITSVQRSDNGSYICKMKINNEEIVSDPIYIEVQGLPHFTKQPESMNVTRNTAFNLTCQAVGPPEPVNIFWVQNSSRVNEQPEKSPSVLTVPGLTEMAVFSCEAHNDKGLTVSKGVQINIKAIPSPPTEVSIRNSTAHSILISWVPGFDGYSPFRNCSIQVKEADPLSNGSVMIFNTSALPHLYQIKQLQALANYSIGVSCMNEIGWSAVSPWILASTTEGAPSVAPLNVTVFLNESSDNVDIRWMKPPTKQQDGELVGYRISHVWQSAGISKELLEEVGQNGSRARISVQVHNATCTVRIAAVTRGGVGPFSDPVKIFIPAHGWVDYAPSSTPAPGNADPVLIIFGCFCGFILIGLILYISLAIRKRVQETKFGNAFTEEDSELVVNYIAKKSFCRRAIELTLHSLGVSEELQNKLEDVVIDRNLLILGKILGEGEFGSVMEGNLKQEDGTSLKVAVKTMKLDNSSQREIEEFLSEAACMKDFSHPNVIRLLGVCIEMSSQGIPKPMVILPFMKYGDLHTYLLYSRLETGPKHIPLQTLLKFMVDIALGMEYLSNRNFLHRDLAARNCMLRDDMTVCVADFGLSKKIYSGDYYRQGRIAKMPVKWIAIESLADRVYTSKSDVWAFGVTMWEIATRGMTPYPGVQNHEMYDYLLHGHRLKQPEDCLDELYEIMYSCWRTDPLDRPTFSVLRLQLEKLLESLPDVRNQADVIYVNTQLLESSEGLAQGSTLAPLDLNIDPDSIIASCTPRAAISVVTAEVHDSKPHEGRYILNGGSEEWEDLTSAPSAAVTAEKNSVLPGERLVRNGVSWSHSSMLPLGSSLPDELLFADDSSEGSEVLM
pIC50: −log10 of the molar value.
In this section we review reported pIC50 values for a set of compounds.

Cc1cc(C)c(-c2ccc(-c3c[nH]c4ncc(-c5ccc6c(c5)CC[C@@H](N5C7COCC5C7)CC6)cc34)cc2)nn1 > 7.00
Cc1cnc(-c2ccc(-c3n[nH]c4ncc(-c5ccc6c(c5)CC[C@@H](N5C7COCC5C7)CC6)cc34)cc2)c(C)c1 > 7.00
Cn1ccnc1-c1ccc(-c2n[nH]c3ncc(-c4ccc5c(c4)CC[C@@H](N4C6COCC4C6)CC5)cc23)cc1 > 7.00

Lab note: need pIC50 with recombinant human MER (Homo sapiens) for entry Cn1ncnc1-c1ccc(-c2n[nH]c3ncc(-c4ccc5c(c4)CC[C@@H](N4C6COCC4C6)CC5)cc23)cc1 , please look it up.
6.00 to 7.00

Repeat for the following compound: Cc1cccnc1-c1ccc(-c2c[nH]c3ncc(-c4ccc5c(c4)CC[C@@H](N[C@H]4CCCOC4)CC5)cc23)cc1
> 7.00

Repeat for the following compound: Cn1nncc1-c1ccc(-c2n[nH]c3ncc(-c4ccc5c(c4)CC[C@@H](N4C6COCC4C6)CC5)cc23)cc1
< 6.00

Repeat for the following compound: Cn1cnnc1-c1ccc(-c2n[nH]c3ncc(-c4ccc5c(c4)CC[C@@H](N4C6COCC4C6)CC5)cc23)cc1
> 7.00
